pIC50: −log10 of the molar value.
Multi-source literature compilation: pIC50 on Receptor-type tyrosine-protein kinase FLT3 (Homo sapiens).

Example cases with answers are listed next.
>  <Compound>
COC[C@H](C)Nc1ncc2c(O[C@H]3CCNCC3(F)F)ncc([C@H]3CC[C@H](O)CC3)c2n1

>  <Measured Result>
5.00 to 6.00

$$$$
>  <Compound>
CCc1nc2c(N)ncc(-c3cnn(C4CCN(CC(C)(C)O)CC4)c3)c2nc1NC1CCOCC1

>  <Measured Result>
≥ 8.00

$$$$
>  <Compound>
NCCNc1nc2ccccc2c2c(=O)c3cc(F)cc(F)c3sc12

>  <Measured Result>
6.70 to 7.29

$$$$

API: value(readout= pIC50, system= Receptor-type tyrosine-protein kinase FLT3 (Homo sapiens), query= `COc1cc(C2=C(c3cn(CCN4CCCCC4)c4ccccc34)C(=O)NC2=O)cc(OC)c1OC` )
5.91

---

Several reports have described IC50 for Receptor-type tyrosine-protein kinase FLT3 (Homo sapiens); a selection of those results is presented here.

>  <Compound>
COC[C@H](C)Nc1ncc2c(-c3ccnc(N4CCC(C)(O)C4)c3)cc(C3CCC(O)CC3)n2n1 (stereo partly drawn)

>  <System>
Receptor-type tyrosine-protein kinase FLT3 (Homo sapiens)

>  <IC50>
100 to 1000 nM

$$$$

Enter reported IC50 observed with Receptor-type tyrosine-protein kinase FLT3 (Homo sapiens) for `COC[C@H](C)Nc1ncc2c(-c3cnn(C4CCOCC4)c3)cc([C@H]3CC[C@H](O)CC3)n2n1`
100 to 1000 nM

Given the entry `CCc1nc2c(Cl)ncc(-c3ccc(N4CCC(N5CCNCC5)CC4)c(OC)c3)c2nc1NC1CCOCC1` , what IC50 was observed with Receptor-type tyrosine-protein kinase FLT3 (Homo sapiens)?
10 to 100 nM

Reported IC50 for Receptor-type tyrosine-protein kinase FLT3 (Homo sapiens), given `CCc1nc2c(N)ncc(-c3ccc(CN4CCC(N5CCN(C)CC5)CC4)c(OC)c3)c2nc1NC1CCOCC1` ?
10 to 100 nM

Notebook: pull reported IC50 for Receptor-type tyrosine-protein kinase FLT3 (Homo sapiens), entry `Oc1ccc(/C=C/c2cc(-c3cccc(Cl)c3)n[nH]2)cc1`
500 to 5000 nM

Please state recorded IC50 (tested on Receptor-type tyrosine-protein kinase FLT3 (Homo sapiens)) of `CNC(=O)c1ncc(-c2cc([C@H]3CC[C@H](O)CC3)n3nc(N[C@@H](C)COC(F)F)ncc23)cn1`
100 to 1000 nM

Receptor-type tyrosine-protein kinase FLT3 (Homo sapiens) / IC50 / `CCCCC[C@H](C)Nc1ncc2c([C@H]3CC[C@@H](C(=O)O)CC3)cc([C@H]3CC[C@H](O)CC3)n2n1` : value?
1000 to 10000 nM

---

A compilation of IC50 values for Receptor-type tyrosine-protein kinase FLT3 (Homo sapiens) from the published literature.

>  <Compound>
COC[C@H](C)Nc1ncc2c(-c3cncc(F)c3)cc([C@H]3CC[C@H](O)CC3)n2n1

>  <Property Label>
IC50

>  <Measured Result>
1000 to 10000 nM

$$$$
>  <Compound>
CN1CCN(c2ccc3[nH]c(-c4cc(-c5ccc(NC(=O)Nc6ccc(F)cc6)cc5)[nH]n4)nc3c2)CC1

>  <Property Label>
IC50

>  <Measured Result>
< 50 nM

$$$$
>  <Compound>
c1ccc(-c2n[nH]c3c2Cc2sccc2-3)nc1

>  <Property Label>
IC50

>  <Measured Result>
100 to 499 nM

$$$$
>  <Compound>
COc1cccc(-c2cc(/C=C/c3ccc(O)cc3)n[nH]2)c1

>  <Property Label>
IC50

>  <Measured Result>
500 to 5000 nM

$$$$
>  <Compound>
COC[C@H](C)Nc1ncc2c(OC3CCOCC3)ncc(-c3ccc(O)cc3)c2n1

>  <Property Label>
IC50

>  <Measured Result>
1000 to 10000 nM

$$$$
>  <Compound>
CC(C)(C)N1CCN(Cc2ccc(NC(=O)Nc3ccc(Oc4ccnc(N)n4)cc3)cc2C(F)(F)F)CC1

>  <Property Label>
IC50

>  <Measured Result>
120 nM

$$$$
>  <Compound>
COC[C@H](C)Nc1ncc2c(-c3ccnc(N4CCOCC4)c3)cc([C@H]3CC[C@H](O)CC3)n2n1

>  <Property Label>
IC50

>  <Measured Result>
100 to 1000 nM

$$$$

API: the following record is the query input.
Missing value: IC50, Receptor-type tyrosine-protein kinase FLT3 (Homo sapiens), entry CCCC(C)Nc1ncc2c(O[C@H]3C[C@H]4CC[C@@H](C3)O4)ncc([C@H]3CC[C@H](O)CC3)c2n1 (some centres unmarked) . Fill in?
100 to 1000 nM

---

Several reports have described pIC50 for Receptor-type tyrosine-protein kinase FLT3 (Homo sapiens, UniProt P36888); a selection of those results is presented here.
pIC50: −log10 of the molar value.

Check out these entries, answers already filled in.
>  <Chemical Structure>
COC[C@H](C)Nc1ncc2c(O[C@H]3C[C@@H](O)C3)ncc([C@H]3CC[C@](C)(O)CC3)c2n1

>  <Measured Result>
5.00 to 6.00

$$$$
>  <Chemical Structure>
C[C@@H](Nc1ncc2c(OC3CCOCC3)ncc([C@H]3CC[C@H](O)CC3)c2n1)C(F)F

>  <Measured Result>
5.00 to 6.00

$$$$
>  <Chemical Structure>
CN1CCN(c2ccc3nc(-c4c(N[C@@H]5CCNC[C@H]5F)c5ccsc5[nH]c4=O)[nH]c3c2)CC1

>  <Measured Result>
≥ 7.30

$$$$
>  <Chemical Structure>
COC[C@H](C)Nc1ncc2c(-c3ccc(CN4CCN(C)CC4)nc3)cc([C@H]3CC[C@H](O)CC3)n2n1

>  <Measured Result>
6.00 to 7.00

$$$$
>  <Chemical Structure>
COC[C@H](C)Nc1ncc2c(-c3ccnc(O[C@H]4CCN(C)C4)c3)cc([C@H]3CC[C@H](O)CC3)n2n1

>  <Measured Result>
6.00 to 7.00

$$$$

Kindly state the measured pIC50 obtained for `CN1CCN(c2ccc3nc(-c4c(N[C@H]5CCNC[C@@H]5F)c5ccsc5[nH]c4=O)[nH]c3c2)CC1` with Receptor-type tyrosine-protein kinase FLT3 (Homo sapiens, UniProt P36888).
≥ 7.30

Form: Entry = `CN1CCN(c2ccc3nc(-c4c(NC5CCC5)c5cscc5[nH]c4=O)[nH]c3c2)CC1` | System = Receptor-type tyrosine-protein kinase FLT3 (Homo sapiens, UniProt P36888) | pIC50 = ____
≥ 7.30

---

// cross-study collection: IC50 for UniProt P36888

>  <Molecule>
CNC(=O)c1ncc(-c2cc([C@H]3CC[C@H](O)CC3)n3nc(N[C@@H](C)COC)ncc23)cn1

>  <IC50>
1 to 10 µM

$$$$
>  <Molecule>
CCOc1ncc(C2CCN(C)CC2)c2nc(N[C@@H](C)CC)ncc12

>  <IC50>
1 to 10 µM

$$$$
>  <Molecule>
COc1cc(C2=C(c3cn(CCCO)c4ccccc34)C(=O)NC2=O)cc(OC)c1OC

>  <IC50>
0.556 µM

$$$$
>  <Molecule>
COC[C@H](C)Nc1ncc2c(-c3cnn(Cc4ccc(S(C)(=O)=O)cc4)c3)cc([C@H]3CC[C@H](O)CC3)n2n1

>  <IC50>
≤ 0.1 µM

$$$$
>  <Molecule>
CCOCC1(COCC)CCC(n2cc(-c3cnc(N)c4nc(CC)c(N[C@@H]5CC[C@H](O)C5)nc34)cn2)CC1

>  <IC50>
≤ 0.01 µM

$$$$
>  <Molecule>
COC[C@H](C)Nc1ncc2c(OC3C[C@H](C)N(C)[C@@H](C)C3)ncc([C@H]3CC[C@H](O)CC3)c2n1 (stereo partly shown)

>  <IC50>
1 to 10 µM

$$$$

# evaluate next
Entry `CCc1nc2c(N)ncc(-c3ccc(N4CCC(N5CCN(C)CC5)CC4)c(OC)c3)c2nc1N[C@H]1CC[C@@H](O)CC1` , system UniProt P36888: what IC50 was measured?
≤ 0.01 µM

---

Assembled from different publications: IC50 for Receptor-type tyrosine-protein kinase FLT3 (Homo sapiens, UniProt P36888).

>  <Molecule>
CCc1nc2c(N)ncc(-c3ccc(N4CCC(O)CC4)c(OC)c3)c2nc1NC1CCOCC1

>  <IC50>
≤ 10 nM

$$$$
>  <Molecule>
CCCCC[C@H](C)Nc1ncc2c(C3=CCC(C(=O)O)CC3)cc([C@H]3CC[C@H](O)CC3)n2n1 (stereo partly drawn)

>  <IC50>
100 to 1000 nM

$$$$
>  <Molecule>
COc1cc(C2=C(c3cn(CCCN4CCN(C)CC4)c4ccccc34)C(=O)NC2=O)cc(OC)c1OC

>  <IC50>
> 10000 nM

$$$$

Now turn to the next molecule.
Observed IC50 on Receptor-type tyrosine-protein kinase FLT3 (Homo sapiens, UniProt P36888) for `CCC[C@@H](C)Nc1ncc2c(=O)n(C3CCNCC3)cc([C@H]3CC[C@H](O)CC3)c2n1` , please.
1000 to 10000 nM
